- assay_notes: drug combination growth inhibition, ovarian cancer – cell-based, oncology-focused library, rucaparib conditional, profiling panel (AID 1508598)
- measurement_context: patient-derived ovarian cancer cells, CellTiter-Glo viability, 144 h; at 0.00122 µM; OCI-C5x cells; with rucaparib 10 µM; hits give low values; 100% = cells with rucaparib alone
observation_type: viability (%)
Field: numeric (%). Do not append units.

Below are worked cases with known answers.
compound=CC[C@@]1(O)C(=O)OCc2c1cc1n(c2=O)Cc2cc3c(CN(C)C)c(O)ccc3nc2-1 observation_type=viability endpoint_value=89.3
compound=Cc1cc2c(C(C)C)c(O)c(O)c(C=O)c2c(O)c1-c1c(C)cc2c(C(C)C)c(O)c(O)c(C=O)c2c1O observation_type=viability endpoint_value=115
compound=NC(=O)NO observation_type=viability endpoint_value=111
compound="CCC(C)n1ncn(-c2ccc(N3CCN(c4ccc(OC[C@H]5CO[C@](Cn6cncn6)(c6ccc(Cl)cc6Cl)O5)cc4)CC3)cc2)c1=O (stereo partly specified)" observation_type=viability endpoint_value=118
compound=Cc1nc(-c2ccc(OCC(C)C)c(C#N)c2)sc1C(=O)O observation_type=viability endpoint_value=115

Value of measured viability for the entry COC(=O)Nc1nc2ccc(C(=O)c3cccs3)cc2[nH]1 : 116

Value of measured viability for the entry Cc1nc2ccc(CN(C)c3ccc(C(=O)N[C@@H](CCC(=O)O)C(=O)O)s3)cc2c(=O)[nH]1 : 115

====

Catalogue of log fold change Tl+ flux values
- System: F380Y
- assay_notes: BK channel mutant inhibitors and activators – cell-based, U2OS BacMam, thallium flux, beta subunits, selectivity assay, profiling panel (AID 1259406);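 note: initial slope of Thallos dye fluorescence rise after thallium is added; log ratio against the mean of 0.3% DMSO vehicle wells on the same plate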
- measurement_context: U2OS BacMam BK variants, at 30 µM
Activity calls are given as the source filed them.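 How the source made its calls: active means thallium flux through the channel raised or lowered by more than 3 SD from vehicle-only wells, actives on both sides; inactive means the rest.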

compound=CN1CCC(=C2c3ccccc3CC(=O)c3sccc32)CC1 endpoint_value="0.0548 (inactive)"

Value of measured log fold change Tl+ flux for the entry Cc1[nH]c(=O)c(C#N)cc1-c1ccncc1 : 0.00987 (inactive)

Value of measured log fold change Tl+ flux for the entry Cc1c(O)cccc1C(=O)N[C@@H](CSc1ccccc1)[C@H](O)CN1C[C@H]2CCCC[C@H]2C[C@H]1C(=O)NC(C)(C)C : 0.0722 (inactive)

Value of measured log fold change Tl+ flux for the entry Nc1[nH]c(=O)ncc1F : 0.0331 (inactive)

Value of measured log fold change Tl+ flux for the entry CCOc1cc(N)c(Cl)cc1C(=O)NCC1CN(Cc2ccc(F)cc2)CCO1 (stereo not given) : -0.0328 (inactive)

Value of measured log fold change Tl+ flux for the entry CC(Cc1ccccc1)(NC(=O)CN)c1ccccc1 (stereo not given) : 0.0343 (inactive)

Value of measured log fold change Tl+ flux for the entry CC(=O)O[C@H]1C[C@@H]2CC[C@@H]3[C@H](CC[C@@]4(C)[C@H]3C[C@H]([N+]3(C)CCCCC3)[C@@H]4OC(C)=O)[C@@]2(C)C[C@@H]1N1CCCCC1 : 0.0327 (inactive)

Value of measured log fold change Tl+ flux for the entry NC1CCN(c2nc3c(cc2F)c(=O)c(C(=O)O)cn3-c2ccc(F)cc2F)C1 (stereo not given) : -0.0112 (inactive)

Value of measured log fold change Tl+ flux for the entry C[C@@H]1CN(CCCn2c3ccccc3c3ccccc32)C[C@H](C)N1 : 0.145 (active)

Value of measured log fold change Tl+ flux for the entry Cn1nnc2c(C(N)=O)ncn2c1=O : -0.0478 (inactive)
